Measured values drawn from patent EP4647433A1 for this set.

# Test system: H358 cells
# ASSAY OVERVIEW: Cell viability (3D spheroid, 3D CellTiter-Glo)
# Type: cell-based
# EXPERIMENTAL CONDITIONS: Homo sapiens, NCI-H358, 120 h; H358 spheroids, 5 days treatment
pIC50: −log10 of the molar value.
For each record, write down the corresponding pIC50.

Req: Please supply the value of reported pIC50 for the item Cn1cnc2ccc(Sc3cnc(N4CCC5(CC4)Cc4ncsc4[C@H]5N)cn3)c(Cl)c2c1=O
Resp: > 8.00

Req: Please supply the value of reported pIC50 for the item COC(C)(C)Cn1cnc2ccc(Sc3cnc(N4CCC5(CC4)Cc4ccccc4[C@H]5N)cn3)c(Cl)c2c1=O
Resp: > 8.00

Req: Please supply the value of reported pIC50 for the item COC(C)Cn1ccc2ccc(Sc3cnc(N4CCC5(CC4)Cc4ccccc4[C@H]5N)cn3)c(Cl)c2c1=O (stereo partly shown)
Resp: > 8.00

Req: Please supply the value of reported pIC50 for the item COC(C)(C)Cn1cnc2ccc(Sc3ncc(N4CCC5(CC4)CO[C@@H](C)[C@H]5N)nc3N)c(Cl)c2c1=O
Resp: 7.30 to 8.00

Req: Please supply the value of reported pIC50 for the item Cn1ccc2ccc(Sc3cnc(N4CCC5(CC4)Cc4ccccc4[C@H]5N)cn3)c(Cl)c2c1=O
Resp: 7.30 to 8.00

Req: Please supply the value of reported pIC50 for the item C[C@@H]1OCC2(CCN(c3cnc(Sc4ccc5ncn(CC6CCN(C)CC6)c(=O)c5c4Cl)cn3)CC2)[C@@H]1N
Resp: > 8.00

Req: Please supply the value of reported pIC50 for the item Cn1ccc2ccc(Sc3ncc(N4CCC5(CC4)Cc4ccccc4[C@H]5N)nc3N)c(Cl)c2c1=O
Resp: > 8.00

---

# System: H358 cells
# ASSAY OVERVIEW: Cell viability (3D spheroid, 3D CellTiter-Glo)
# Type: cell-based
# EXPERIMENTAL CONDITIONS: Homo sapiens, NCI-H358, 120 h; H358 spheroids, 5 days treatment
REPORTED PROPERTY: IC50

Req: Please supply the value of reported IC50 for the item Cn1ccc2ccc(Sc3cnc(N4CCC5(CC4)Cc4ccccc4[C@H]5N)cn3)cc2c1=O
Resp: < 0.01 µM

Req: Please supply the value of reported IC50 for the item COC(C)(C)Cn1ccc2ccc(Sc3cnc(N4CCC5(CC4)Cc4ccccc4[C@H]5N)cn3)c(Cl)c2c1=O
Resp: < 0.01 µM

Req: Please supply the value of reported IC50 for the item COC(C)(C)Cn1cnc2ccc(Sc3cnc(N4CCC5(CC4)Cc4ccccc4[C@H]5N)nn3)c(Cl)c2c1=O
Resp: < 0.01 µM

Req: Please supply the value of reported IC50 for the item CC(C)(O)Cn1cnc2ccc(Sc3cnc(N4CCC5(CC4)Cc4ccccc4[C@H]5N)cn3)c(Cl)c2c1=O
Resp: < 0.01 µM

Req: Please supply the value of reported IC50 for the item COC(C)(C)Cn1cnc2ccc(Sc3cnc(N4CCC5(CC4)Oc4ccccc4[C@H]5N)cn3)c(Cl)c2c1=O
Resp: < 0.01 µM

Req: Please supply the value of reported IC50 for the item CC(C)n1cnc2ccc(Sc3cnc(N4CCC5(CC4)Cc4ncsc4[C@H]5N)cn3)c(Cl)c2c1=O
Resp: < 0.01 µM

Req: Please supply the value of reported IC50 for the item COC(C)(C)Cn1ccc2ccc(Sc3cnc(N4CCC5(CC4)Cc4ccccc4[C@H]5N)cn3)cc2c1=O
Resp: < 0.01 µM

Req: Please supply the value of reported IC50 for the item COC(C)Cn1c(C)nc2ccc(Sc3cnc(N4CCC5(CC4)CO[C@@H](C)[C@H]5N)cn3)c(Cl)c2c1=O (stereo partly drawn)
Resp: 0.01 to 0.05 µM

Req: Please supply the value of reported IC50 for the item COC(C)(C)Cn1cnc2ccc(Sc3cnc(N4CCC5(CC4)Cc4scnc4[C@H]5N)cn3)c(Cl)c2c1=O
Resp: 0.01 to 0.05 µM

Req: Please supply the value of reported IC50 for the item COC(C)(C)Cn1cnc2ccc(Sc3cnc(N4CCC5(CC4)Cc4ccccc4[C@H]5N)cn3)cc2c1=O
Resp: < 0.01 µM

Req: Please supply the value of reported IC50 for the item COC(C)(C)Cn1cnc2ccc(Sc3cnc(N4CCC5(CC4)Cc4ncsc4[C@H]5N)cn3)c(Cl)c2c1=O
Resp: < 0.01 µM

Req: Please supply the value of reported IC50 for the item COC(C)(C)Cn1cnc2ccc(Sc3cnc(N4CCC5(CC4)CO[C@@H](C)[C@H]5N)cn3)c(Cl)c2c1=O
Resp: < 0.01 µM

Req: Please supply the value of reported IC50 for the item Cn1cnc2ccc(Sc3cnc(N4CCC5(CC4)Cc4ccccc4[C@H]5N)cn3)c(Cl)c2c1=O
Resp: < 0.01 µM

Req: Please supply the value of reported IC50 for the item N[C@@H]1c2ccccc2CC12CCN(c1cnc(Sc3ccc4ncn(-c5ccccc5)c(=O)c4c3Cl)cn1)CC2
Resp: < 0.01 µM

Req: Please supply the value of reported IC50 for the item COC(C)Cn1ccc2ccc(Sc3cnc(N4CCC5(CC4)CO[C@@H](C)[C@H]5N)cn3)c(Cl)c2c1=O (stereo partly drawn)
Resp: < 0.01 µM

---

# STUDY SYSTEM: SHP2 (Homo sapiens)
# Construct: SHP2 (full length, diluted to 100 pM final concentration in reaction buffer, BPS bioscience, US); purchased BPS bioscience, US
# Sequence (Q06124 whole entry): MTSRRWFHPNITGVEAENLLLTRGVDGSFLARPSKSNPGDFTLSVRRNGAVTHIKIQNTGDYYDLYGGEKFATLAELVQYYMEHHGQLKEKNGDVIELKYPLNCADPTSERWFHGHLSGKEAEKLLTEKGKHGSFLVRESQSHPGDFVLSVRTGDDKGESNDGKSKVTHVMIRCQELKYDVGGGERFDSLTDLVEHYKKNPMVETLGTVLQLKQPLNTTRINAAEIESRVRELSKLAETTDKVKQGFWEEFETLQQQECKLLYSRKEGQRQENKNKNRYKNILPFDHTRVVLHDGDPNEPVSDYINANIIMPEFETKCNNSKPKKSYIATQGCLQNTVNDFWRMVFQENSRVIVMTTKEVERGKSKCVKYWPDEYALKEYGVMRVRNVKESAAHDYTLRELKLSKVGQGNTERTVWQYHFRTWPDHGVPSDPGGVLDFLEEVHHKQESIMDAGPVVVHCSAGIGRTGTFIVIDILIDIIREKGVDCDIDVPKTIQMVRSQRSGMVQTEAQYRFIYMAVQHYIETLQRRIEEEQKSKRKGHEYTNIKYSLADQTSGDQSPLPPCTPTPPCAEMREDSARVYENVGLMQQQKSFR
# ASSAY OVERVIEW: Phosphatase assay (PTPase assay, DiFMUP substrate)
# Type: biochemical
# EXPERIMENTAL CONDITIONS: full length SHP2 100 pM activated with SHP2 activating peptide, DiFMUP 80 µM, 2 hours; read-out: PTPase assay (IC50)
REPORTED PROPERTY: IC50

Req: Please supply the value of reported IC50 for the item C[C@@H]1OCC2(CCN(c3cnc(Sc4ccc5ncn(Cc6ccccc6)c(=O)c5c4Cl)c(N)n3)CC2)[C@@H]1N [Example 12]
Resp: 3 to 100 nM

Req: Please supply the value of reported IC50 for the item COCCn1cnc2ccc(Sc3cnc(N4CCC5(CC4)Oc4ccccc4[C@H]5N)cn3)c(Cl)c2c1=O [Example 22]
Resp: 3 to 100 nM

Req: Please supply the value of reported IC50 for the item Cn1cnc2ccc(Sc3cnc(N4CCC5(CC4)Cc4ncccc4[C@H]5N)cn3)c(Cl)c2c1=O [Example 6]
Resp: < 3 nM

Req: Please supply the value of reported IC50 for the item CC(C)n1cnc2ccc(Sc3cnc(N4CCC5(CC4)Cc4ncsc4[C@H]5N)cn3)c(Cl)c2c1=O [Example 4]
Resp: < 3 nM

Req: Please supply the value of reported IC50 for the item CC(C)(O)Cn1cnc2ccc(Sc3cnc(N4CCC5(CC4)Cc4ccccc4[C@H]5N)cn3)c(Cl)c2c1=O [Example 25]
Resp: < 3 nM

Req: Please supply the value of reported IC50 for the item COC(C)Cn1cnc2ccc(Sc3ncc(N4CCC5(CC4)Cc4ccccc4[C@H]5N)nc3N)c(Cl)c2c1=O (stereo partly shown) [Example 9]
Resp: < 3 nM

Req: Please supply the value of reported IC50 for the item CC(C)n1ccc2ccc(Sc3cnc(N4CCC5(CC4)CO[C@@H](C)[C@H]5N)cn3)c(Cl)c2c1=O [Example 46]
Resp: < 3 nM

---

# STUDY SYSTEM: SHP2 (Homo sapiens)
# Construct: SHP2 (full length, diluted to 100 pM final concentration in reaction buffer, BPS bioscience, US); purchased BPS bioscience, US
# ASSAY OVERVIEW: Phosphatase assay (PTPase assay, DiFMUP substrate)
# Assay type: biochemical
pIC50: −log10 of the molar value.
REPORTED PROPERTY: pIC50

Req: Please supply the value of reported pIC50 for the item C[C@@H]1OCC2(CCN(c3cnc(Sc4ccc5ncn(CCC#N)c(=O)c5c4Cl)cn3)CC2)[C@@H]1N [Example 24]
Resp: > 8.52

---

# Test system: H358 cells
# ASSAY OVERVIEW: Cell viability (3D spheroid, 3D CellTiter-Glo)
# Assay type: cell-based
# EXPERIMENTAL CONDITIONS: Homo sapiens, NCI-H358, 120 h; H358 spheroids, 5 days treatment
pIC50: −log10 of the molar value.
REPORTED PROPERTY: pIC50

Req: Please supply the value of reported pIC50 for the item COC(C)(C)Cn1cnc2ccc(Sc3nc(CO)c(N4CCC5(CC4)Cc4ccccc4[C@H]5N)nc3C)c(Cl)c2c1=O [Example 35]
Resp: > 8.00

Req: Please supply the value of reported pIC50 for the item CC(C)n1ccc2ccc(Sc3cnc(N4CCC5(CC4)Cc4ncsc4[C@H]5N)cn3)c(Cl)c2c1=O [Example 40]
Resp: > 8.00

Req: Please supply the value of reported pIC50 for the item Cn1cnc2ccc(Sc3cnc(N4CCC5(CC4)Cc4ncccc4[C@H]5N)cn3)c(Cl)c2c1=O [Example 6]
Resp: > 8.00

Req: Please supply the value of reported pIC50 for the item COC(C)(C)C(F)n1cnc2ccc(Sc3cnc(N4CCC5(CC4)CO[C@@H](C)[C@H]5N)cn3)c(Cl)c2c1=O (stereo partly shown) [Example 28]
Resp: 7.30 to 8.00

Req: Please supply the value of reported pIC50 for the item Cn1ccc2ccc(Sc3cnc(N4CCC5(CC4)Cc4ncsc4[C@H]5N)cn3)c(Cl)c2c1=O [Example 16]
Resp: > 8.00

Req: Please supply the value of reported pIC50 for the item CC(C)(O)Cn1cnc2ccc(Sc3ncc(N4CCC5(CC4)Cc4ccccc4[C@H]5N)nc3N)c(Cl)c2c1=O [Example 11]
Resp: > 8.00

Req: Please supply the value of reported pIC50 for the item C[C@@H]1OCC2(CCN(c3cnc(Sc4ccc5ncn(CCC#N)c(=O)c5c4Cl)cn3)CC2)[C@@H]1N [Example 24]
Resp: 7.30 to 8.00

Req: Please supply the value of reported pIC50 for the item N[C@@H]1c2ccccc2CC12CCN(c1cnc(Sc3ccc4ncn(-c5cccnc5)c(=O)c4c3Cl)cn1)CC2 [Example 31]
Resp: > 8.00

Req: Please supply the value of reported pIC50 for the item COC(C)Cn1ccc2ccc(Sc3ncc(N4CCC5(CC4)Cc4ccccc4[C@H]5N)nc3N)c(Cl)c2c1=O (stereo partly shown) [Example 49]
Resp: > 8.00

Req: Please supply the value of reported pIC50 for the item N[C@@H]1c2scnc2CC12CCN(c1cnc(Sc3ccc4ncn(-c5ccccc5)c(=O)c4c3Cl)cn1)CC2 [Example 38]
Resp: > 8.00
